# Test system: phospho-AMPK (Thr172)
# assay-notes: Intracellular signalling by Western blot: phospho-AMPK
# Assay type: cell-based, human
# condition-details: serum-starved HEK293 cells, 100 μM, 10 or 30 min, vs. Basal
property: phosphorylation of AMPK (Thr172)

{"smiles-text": "NC(=O)c1ccc[n+](CC(=O)c2ccc(Cl)cc2)c1", "value-reported": "did not respond"}
{"smiles-text": "NC(=O)c1ccc[n+](CC(=O)c2ccc(Br)cc2)c1", "value-reported": "did not respond"}

---

# target-entity: human AChE (Homo sapiens, UniProt P22303)
# Sequence (P22303 other isoform, or with tags, fused parts or gaps): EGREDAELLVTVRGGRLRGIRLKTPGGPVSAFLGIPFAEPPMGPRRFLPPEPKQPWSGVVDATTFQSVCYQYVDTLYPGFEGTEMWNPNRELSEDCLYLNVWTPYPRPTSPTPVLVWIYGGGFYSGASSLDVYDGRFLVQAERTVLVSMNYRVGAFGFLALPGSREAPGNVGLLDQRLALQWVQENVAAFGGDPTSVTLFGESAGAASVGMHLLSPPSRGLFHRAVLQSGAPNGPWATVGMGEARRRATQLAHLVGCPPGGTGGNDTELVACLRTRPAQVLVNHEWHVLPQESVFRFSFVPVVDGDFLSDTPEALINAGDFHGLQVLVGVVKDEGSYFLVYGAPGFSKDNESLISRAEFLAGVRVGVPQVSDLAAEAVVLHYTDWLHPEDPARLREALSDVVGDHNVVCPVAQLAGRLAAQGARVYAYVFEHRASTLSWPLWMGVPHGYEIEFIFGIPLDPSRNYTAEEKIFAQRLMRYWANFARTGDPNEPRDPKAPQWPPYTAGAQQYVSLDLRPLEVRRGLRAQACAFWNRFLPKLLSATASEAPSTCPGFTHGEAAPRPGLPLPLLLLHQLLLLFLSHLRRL
# assay-notes: AChE reversible inhibition (Ellman's method, Hunter–Downs evaluation)
# Type: biochemical
# condition-details: selectivity ratio of measured Ki values
As shown below, each of these compounds has a reported Ki (AChE)/Ki (BChE) value.

{"smiles-text": "NC(=O)c1ccc[n+](CC(=O)c2ccc(F)cc2)c1", "Ki (AChE)/Ki (BChE)": 0.14}
{"smiles-text": "COc1ccc(C(=O)C[n+]2cccc(C(N)=O)c2)cc1", "Ki (AChE)/Ki (BChE)": 0.08}
{"smiles-text": "NC(=O)c1ccc[n+](CC(=O)c2ccc([N+](=O)[O-])cc2)c1", "Ki (AChE)/Ki (BChE)": 0.27}
{"smiles-text": "Cc1ccc(C(=O)C[n+]2cccc(C(N)=O)c2)cc1", "Ki (AChE)/Ki (BChE)": 0.01}
{"smiles-text": "COc1ccccc1C(=O)C[n+]1cccc(C(N)=O)c1", "Ki (AChE)/Ki (BChE)": 0.14}
{"smiles-text": "NC(=O)c1ccc[n+](CC(=O)c2ccc(-c3ccccc3)cc2)c1.[Br-]", "Ki (AChE)/Ki (BChE)": 0.50}
{"smiles-text": "NC(=O)c1ccc[n+](CC(=O)c2ccccc2)c1", "Ki (AChE)/Ki (BChE)": 0.34}
{"smiles-text": "NC(=O)c1ccc[n+](CC(=O)c2ccc(Br)cc2)c1", "Ki (AChE)/Ki (BChE)": 0.23}
{"smiles-text": "NC(=O)c1ccc[n+](CC(=O)c2ccc(Cl)cc2)c1", "Ki (AChE)/Ki (BChE)": 0.15}
